Target: human adenosine A2a receptor (Homo sapiens)
Construct: expressed in transfected cells; host or cells: CHO cells, semliki forest virus expression system; membrane preparation
Sequence (P29274 whole entry): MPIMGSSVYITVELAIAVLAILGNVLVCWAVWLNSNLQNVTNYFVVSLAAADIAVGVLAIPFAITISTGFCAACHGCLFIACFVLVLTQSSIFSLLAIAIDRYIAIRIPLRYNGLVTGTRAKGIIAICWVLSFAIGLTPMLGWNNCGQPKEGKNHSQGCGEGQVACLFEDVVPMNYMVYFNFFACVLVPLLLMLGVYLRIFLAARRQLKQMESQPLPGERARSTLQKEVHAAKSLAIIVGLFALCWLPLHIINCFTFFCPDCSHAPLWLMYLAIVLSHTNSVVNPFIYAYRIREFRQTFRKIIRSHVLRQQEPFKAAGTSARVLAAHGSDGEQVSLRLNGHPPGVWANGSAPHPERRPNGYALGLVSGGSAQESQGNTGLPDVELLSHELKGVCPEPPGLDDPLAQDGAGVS
Assay: Human adenosine A2a receptor radioligand binding assay ([125I]-AB-MECA, CHO cell membranes)
Conditions: ratio obtained by dividing KiHA1 by KiHA2A
measuredMetric: Selectivity A1/A2a

Example results:
| compound | Selectivity A1/A2a |
| --- | --- |
| COc1ccc(-c2ccc(Cl)s2)n2nc(NC(=O)c3ccc(C)s3)nc12 [Example 31] | 39.6 |
| COc1ccc(-c2ccccc2)n2nc(NC(=O)c3ccccc3Cl)nc12 [Example 5] | 7.3 |
| COc1ccc(-c2cccs2)n2nc(NC(=O)c3ccc(Cl)cc3)nc12 [Example 15] | 25.6 |

Task: Hi! What's the reported Selectivity A1/A2a for COc1ccc(-c2cccc(Cl)c2)n2nc(NC(=O)c3ccc(C)s3)nc12 [Example 25] on human adenosine A2a receptor (Homo sapiens)?
Output: 12.7

Task: Request - read-out Selectivity A1/A2a | tested on human adenosine A2a receptor (Homo sapiens) | compound COc1ccc(-c2cccs2)n2nc(NC(=O)c3ccc(Br)cc3)nc12 [Example 2]
Output: 37.6

* * *

Target: human adenosine A2a receptor (Homo sapiens)
Construct: membrane preparation
Experiment: Human adenosine A2a receptor radioligand binding assay ([125I]-AB-MECA, CHO cell membranes)
Details: recombinant human A2a receptor expressed in CHO cells; Ki from IC50 by Cheng-Prussoff equation; read-out: hA2a Ki
measuredMetric: Ki
The answer should read as a number with its unit following.

Illustrative cases are given below, each with its answer.
| smilesInput | measuredMetric | result |
| --- | --- | --- |
| CCOC(=O)c1cccc(-c2ccc(OC)c3nc(NC(=O)c4ccc(C)s4)nn23)c1 | Ki | 332 nM |
| COc1ccc(-c2cccs2)n2nc(NC(=O)c3ccccc3Br)nc12 | Ki | 208 nM |
| COc1ccc(-c2ccccc2C)n2nc(NC(=O)c3ccc(C)s3)nc12 | Ki | 938 nM |
| COc1cccc(C(=O)Nc2nc3c(OC)ccc(-c4ccccc4)n3n2)c1 | Ki | 159 nM |

Task: Data request, read-out Ki, for COc1ccc(-c2cccc(F)c2)n2nc(NC(=O)c3ccc(C)s3)nc12
Output: 128 nM

* * *

Target: human adenosine A1 receptor (Homo sapiens, UniProt P30542)
Construct: membrane preparation
Sequence (P30542 1-326): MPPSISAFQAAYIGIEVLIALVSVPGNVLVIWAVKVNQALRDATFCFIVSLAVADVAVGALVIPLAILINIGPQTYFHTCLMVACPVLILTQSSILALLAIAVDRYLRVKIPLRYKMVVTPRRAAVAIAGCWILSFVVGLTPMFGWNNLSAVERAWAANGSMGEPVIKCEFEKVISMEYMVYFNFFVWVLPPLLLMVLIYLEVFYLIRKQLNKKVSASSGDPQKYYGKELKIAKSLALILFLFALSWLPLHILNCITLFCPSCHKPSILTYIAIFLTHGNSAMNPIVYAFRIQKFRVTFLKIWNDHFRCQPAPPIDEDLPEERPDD
Assay: Human adenosine A1 receptor radioligand binding assay ([3H]-DPCPX, SPA, CHO cell membranes)
Settings: recombinant human A1 receptor expressed in CHO cells; [3H]-DPCPX 0.6 nM; Ki from IC50 by Cheng-Prussoff equation; read-out: hA1 Ki
measuredMetric: pKi
Interpret pKi as the negative base-10 log of the concentration measured in mol/L.

| compound | measuredNumber |
| --- | --- |
| COc1ccc(-c2ccccc2F)n2nc(NC(=O)c3ccc(F)cc3)nc12 [Example 32] | 5.25 |
| COc1ccc(-c2ccsc2)n2nc(NC(=O)c3ccc(C)s3)nc12 [Example 29] | 5.76 |
| COc1ccc(-c2cccs2)n2nc(NC(=O)c3ccccc3Cl)nc12 [Example 13] | 5.65 |
| COc1ccc(-c2ccc(Cl)cc2)n2nc(NC(=O)c3ccc(C)s3)nc12 [Example 26] | 5.54 |
| COc1ccc(-c2ccccc2)n2nc(NC(=O)c3ccccc3Cl)nc12 [Example 5] | 5.73 |
| COc1ccc(-c2ccsc2)n2nc(NC(=O)c3ccc(F)cc3)nc12 [Example 33] | 5.63 |

Task: GET /values?readout=pKi&item= CCOc1cccc(-c2ccc(OC)c3nc(NC(=O)c4ccc(F)cc4)nn23)c1 [Example 34]
Output: 5.83

Task: // lookup pKi for COc1ccc(-c2ccc(Cl)s2)n2nc(NC(=O)c3ccc(C)s3)nc12 [Example 31]
Output: 5.93

Task: Bench note: what pKi did COc1cccc(C(=O)Nc2nc3c(OC)ccc(-c4ccccc4)n3n2)c1 [Example 11] show?
Output: 5.43

Task: State the recorded pKi for this entry: COc1cccc(-c2ccc(OC)c3nc(NC(=O)c4ccc(C)s4)nn23)c1 [Example 27]
Output: 5.75

Task: For the compound shown here, COc1ccc(-c2cccs2)n2nc(NC(=O)c3ccccc3)nc12 [Example 12] , give the reported pKi.
Output: 5.67

Task: Entry under review: CCOc1cccc(-c2ccc(OC)c3nc(NC(=O)c4ccc(C)s4)nn23)c1 [Example 30] . Reported pKi?
Output: 5.87
